testSystem: cellular PARG (Homo sapiens, UniProt Q86W56)
Construct: endogenous in cells
Sequence (Q86W56 whole entry): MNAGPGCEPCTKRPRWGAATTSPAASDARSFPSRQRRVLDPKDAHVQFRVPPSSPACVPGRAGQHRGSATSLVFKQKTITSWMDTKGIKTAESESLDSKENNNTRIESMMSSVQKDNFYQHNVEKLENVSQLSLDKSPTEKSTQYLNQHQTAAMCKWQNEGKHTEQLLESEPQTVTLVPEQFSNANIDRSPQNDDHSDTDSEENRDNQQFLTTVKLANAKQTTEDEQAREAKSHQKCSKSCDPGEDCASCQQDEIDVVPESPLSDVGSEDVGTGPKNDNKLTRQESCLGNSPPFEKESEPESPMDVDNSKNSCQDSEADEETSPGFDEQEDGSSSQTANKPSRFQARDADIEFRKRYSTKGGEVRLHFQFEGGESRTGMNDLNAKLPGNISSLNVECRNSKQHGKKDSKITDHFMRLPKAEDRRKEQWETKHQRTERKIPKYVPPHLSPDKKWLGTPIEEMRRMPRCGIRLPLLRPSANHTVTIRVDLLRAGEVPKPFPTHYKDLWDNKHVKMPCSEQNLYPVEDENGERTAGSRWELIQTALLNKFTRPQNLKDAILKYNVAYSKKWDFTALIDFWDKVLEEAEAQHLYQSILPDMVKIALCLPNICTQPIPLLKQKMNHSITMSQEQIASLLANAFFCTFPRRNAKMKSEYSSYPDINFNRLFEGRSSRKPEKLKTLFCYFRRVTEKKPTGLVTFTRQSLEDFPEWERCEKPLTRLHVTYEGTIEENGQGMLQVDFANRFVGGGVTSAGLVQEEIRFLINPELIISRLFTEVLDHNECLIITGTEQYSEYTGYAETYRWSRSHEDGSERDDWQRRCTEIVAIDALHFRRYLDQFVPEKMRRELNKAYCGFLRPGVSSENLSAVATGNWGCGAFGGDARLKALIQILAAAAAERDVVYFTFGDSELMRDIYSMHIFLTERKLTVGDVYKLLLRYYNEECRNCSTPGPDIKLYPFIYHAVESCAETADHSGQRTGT
protocolNotes: Nuclear PAR accumulation assay (immunofluorescence high-content imaging)
appliedConditions: HeLa cells, 1 hour compound treatment then MMS 50 μg/mL for an additional hour
resultType: IC50

CC[C@@H]1CN=C2N(Cc3cnn(C)c3)C(=O)c3cc(S(=O)(=O)NC4(C)CC4)ccc3N21 [Example 45] :: ≤ 100 nM
[2H]C([2H])(c1cnn(C)c1)N1C(=O)c2cc(S(=O)(=O)NC3(C)CC3)c(F)cc2N2C1=NC[C@H]2C [Example 86] :: ≤ 100 nM
Cn1cc(CN2C(=O)c3cc(S(=O)(=O)NC4(C)CC4)ccc3N3C2=NC[C@@H]3C#CC2CC2)cn1 [Example 84] :: 1000 to 10000 nM

Prompt: State its IC50 for this molecule: Cn1cc(CN2C(=O)c3cc(S(=O)(=O)NC4(C)CC4)ccc3N3CC4(CC4)N=C23)cn1 [Example 100]
Completion: ≤ 100 nM

Prompt: State its IC50 for this molecule: CN(C)C[C@H]1CN=C2N(Cc3cnn(C)c3)C(=O)c3cc(S(=O)(=O)NC4(C)CC4)ccc3N21 [Example 96]
Completion: 1000 to 10000 nM

Prompt: State its IC50 for this molecule: Cn1cc(CN2C(=O)c3cc(S(=O)(=O)NC4(C)CC4)ccc3N3CC4(CC(F)(F)C4)N=C23)cn1 [Example 102]
Completion: ≤ 100 nM
